Assay: Plasma protein binding (equilibrium dialysis), rat
Assay type: in vitro ADME
Conditions: pH 7.4, 37° C.

Chemical string	fraction unbound at 4 h, 1 μM
COc1ccc(-c2nn([C@@H](C)c3oc4cccc(F)c4c(=O)c3-c3cccc(F)c3)c3ncnc(N)c23)cc1NS(C)(=O)=O	0.0096

* * *

Biological target: PI3K beta (Mus musculus, UniProt Q8BTI9)
Construct: endogenous in cells
Sequence (Q8BTI9 whole entry): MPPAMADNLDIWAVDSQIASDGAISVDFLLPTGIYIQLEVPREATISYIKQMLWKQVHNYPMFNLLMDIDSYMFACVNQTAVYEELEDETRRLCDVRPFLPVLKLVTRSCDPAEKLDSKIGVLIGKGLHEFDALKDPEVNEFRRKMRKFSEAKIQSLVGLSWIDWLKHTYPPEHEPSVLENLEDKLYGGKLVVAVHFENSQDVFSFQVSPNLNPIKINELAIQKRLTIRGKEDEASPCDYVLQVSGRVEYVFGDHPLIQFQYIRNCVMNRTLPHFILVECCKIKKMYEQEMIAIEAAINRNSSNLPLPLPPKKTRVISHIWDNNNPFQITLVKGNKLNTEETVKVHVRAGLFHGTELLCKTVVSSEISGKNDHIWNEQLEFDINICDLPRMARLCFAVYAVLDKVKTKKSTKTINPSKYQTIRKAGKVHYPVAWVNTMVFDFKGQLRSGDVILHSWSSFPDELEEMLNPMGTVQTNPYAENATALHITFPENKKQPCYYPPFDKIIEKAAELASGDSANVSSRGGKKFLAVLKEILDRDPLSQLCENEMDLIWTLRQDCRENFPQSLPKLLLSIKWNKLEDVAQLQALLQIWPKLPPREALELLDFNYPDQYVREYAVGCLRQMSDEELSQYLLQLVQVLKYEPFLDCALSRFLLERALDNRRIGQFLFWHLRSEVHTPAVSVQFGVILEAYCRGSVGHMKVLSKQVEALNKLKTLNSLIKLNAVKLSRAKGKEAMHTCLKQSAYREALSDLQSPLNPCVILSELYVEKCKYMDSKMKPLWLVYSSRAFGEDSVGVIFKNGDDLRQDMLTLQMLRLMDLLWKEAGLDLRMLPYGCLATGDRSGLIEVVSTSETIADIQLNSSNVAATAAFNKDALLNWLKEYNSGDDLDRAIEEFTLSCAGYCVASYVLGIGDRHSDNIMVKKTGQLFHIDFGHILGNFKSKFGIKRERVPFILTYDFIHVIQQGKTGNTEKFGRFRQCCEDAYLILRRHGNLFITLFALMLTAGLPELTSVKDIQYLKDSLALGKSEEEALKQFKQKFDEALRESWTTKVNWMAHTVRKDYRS
Sequence (P26450 whole entry partner): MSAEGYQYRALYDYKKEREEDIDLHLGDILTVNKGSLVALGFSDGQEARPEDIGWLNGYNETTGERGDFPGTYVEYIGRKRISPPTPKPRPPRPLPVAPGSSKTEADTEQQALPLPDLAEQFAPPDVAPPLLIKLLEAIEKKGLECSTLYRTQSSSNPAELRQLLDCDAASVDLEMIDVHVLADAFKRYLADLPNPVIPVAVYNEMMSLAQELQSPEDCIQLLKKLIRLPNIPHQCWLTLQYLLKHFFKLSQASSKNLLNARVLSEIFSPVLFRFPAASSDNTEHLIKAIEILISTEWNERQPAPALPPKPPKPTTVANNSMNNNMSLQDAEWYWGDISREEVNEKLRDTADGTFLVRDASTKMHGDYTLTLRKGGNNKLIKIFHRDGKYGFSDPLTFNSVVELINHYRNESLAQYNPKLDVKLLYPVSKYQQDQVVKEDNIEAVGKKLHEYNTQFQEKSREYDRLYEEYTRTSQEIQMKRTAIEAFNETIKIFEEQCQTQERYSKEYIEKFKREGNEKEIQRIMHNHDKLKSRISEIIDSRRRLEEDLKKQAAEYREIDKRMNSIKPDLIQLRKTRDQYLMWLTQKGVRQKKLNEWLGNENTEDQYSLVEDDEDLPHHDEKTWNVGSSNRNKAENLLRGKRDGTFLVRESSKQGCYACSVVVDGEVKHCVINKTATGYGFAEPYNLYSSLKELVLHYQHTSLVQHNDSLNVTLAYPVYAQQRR
Experiment: Assay 4A2: LPA induced AktS473 phosphorylation in 3T3 fibroblasts
Conditions: LPA 5 μM, read-out: Cellular IC50 PI3K beta (LPA induced pAKT in 3T3 fibroblasts)
Experimental: The objective of this study was to determine the effect of Compound A1 on PI3Kβ kinase mediated LPA induced AktS473 phosphorylation in 3T3 fibroblasts. 3T3 cells were treated with desired concentrations of the test compound for 15 minutes. […] Samples were analyzed by Western Blotting using pAKT (S473) as the primary and anti-rabbit IgG-HRP as a secondary antibody. Intensity of the bands was determined using ImageJ 1.42q (NIH, USA) and normalized to Actin (loading control). […]
pIC50: −log10 of the molar value.

Chemical string	pIC50
COc1ccc(-c2nn([C@@H](C)c3oc4cccc(F)c4c(=O)c3-c3cccc(F)c3)c3ncnc(N)c23)cc1NS(C)(=O)=O	5.88

The reported numbers originate from patent US20190202836A1.
